target desc: human active recombinant p38α-6His tagged (Homo sapiens, UniProt Q16539)
Sequence (Q16539 whole entry): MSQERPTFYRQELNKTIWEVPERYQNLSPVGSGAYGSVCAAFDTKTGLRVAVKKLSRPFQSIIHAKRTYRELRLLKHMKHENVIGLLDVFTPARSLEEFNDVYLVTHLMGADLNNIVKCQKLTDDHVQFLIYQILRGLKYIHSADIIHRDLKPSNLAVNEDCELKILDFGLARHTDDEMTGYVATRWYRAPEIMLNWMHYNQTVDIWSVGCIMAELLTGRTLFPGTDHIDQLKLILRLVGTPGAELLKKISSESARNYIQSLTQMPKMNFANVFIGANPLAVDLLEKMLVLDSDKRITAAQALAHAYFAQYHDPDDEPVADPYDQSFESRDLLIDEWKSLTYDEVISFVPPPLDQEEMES
experiment notes: P38 Alpha Enzyme Assay (AlphaScreen, biotinylated-ATF2 substrate);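 further: 0.5 nM final p38α, reaction started with ATP and run 45 min at 37 °C, phospho-ATF2 read by antibody-based AlphaScreen, background wells quenched with EDTA before ATP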
Type: biochemical
run conditions: p38 alpha enzyme inhibition; means of replicate determinations; 4 h pre-incubation at 37° C.; SD of assay 0.2-0.3 log units
assay metric: pIC50
# output: bare number, no unit

Request: Please give the measured pIC50 for this compound: Cc1ccc(C(=O)NC2CC2)cc1-n1ccnc(NC(C)(C)c2ccccc2OCCCNCC(F)(F)F)c1=O
Result: 8.9

Request: So what does the record say about pIC50 for Cc1ccc(C(=O)NC2CC2)cc1-n1ccnc(N[C@@H](c2ccccc2)C2CCN(C(=O)OCc3ccccc3)CC2)c1=O ?
Result: 6.3

Request: Quick check: pIC50 of Cc1ccc(C(=O)NC2CC2)cc1-n1ccnc(N2CCN(C)CC2)c1=O ?
Result: 6.4

Request: // lookup pIC50 for CNCCOc1ccccc1C1(Nc2nccn(-c3cc(C(=O)NOC)ccc3C)c2=O)CC1
Result: 10.1
